Assay system U251 CNS; read-out recorded as GI50.

COMPOUND	SYSTEM_TESTED	GI50
CCN(CCO)CC(C)Nc1ccc([N+](=O)[O-])c2sc3ccccc3c(=O)c12 (stereo not given)	U251 CNS	0.716 µM

In the following, a different compound is considered.
input: Query (compound): O=C([CH-]C(=O)c1ccccc1)c1ccccc1.O=C([CH-]C(=O)c1ccccc1)c1ccccc1.[OH-].[OH-].[Ti+4] ; field requested: GI50
output: 18.1 µM

* * *

// TGI lookup, one value per entry
# System: DLD-1 colon
# EXPERIMENT: NCI tumour cell line growth inhibition, 48 h

input: Query (molecule): Cc1cc(N(CCC#N)CCC#N)ccc1/C=C1N=C(/C=C\c2ccccc2)N(c2ccc(Cl)cc2)C\1=O ; field requested: TGI
output: > 100 µM

input: Query (molecule): CN(C)c1ccc(/C=C2\C=Cc3ccccc32)cc1 ; field requested: TGI
output: > 100 µM

input: Query (molecule): CC(C)c1c2[nH]c3ccccc3c2c(C(C)C)c2[nH]c3ccccc3c12 ; field requested: TGI
output: > 100 µM

input: Query (molecule): COC(=O)CC1NC(=O)C1C1(C)OCCO1 (stereo not given) ; field requested: TGI
output: > 100 µM

input: Query (molecule): CCOC(=O)CSc1nnc(C(Sc2nc(-c3ccccc3)c(-c3ccccc3)[nH]2)C(C)C)n1-c1ccccc1 (stereo not given) ; field requested: TGI
output: > 10 µM

input: Query (molecule): N#Cc1ccc(N=Cc2c([O-])ccc3ccccc23)cc1.[C-]#[O+].[C-]#[O+].[Ir] ; field requested: TGI
output: 4.09 µM

input: Query (molecule): CCO/C=C1\N=C(c2ccccc2Br)OC1=O ; field requested: TGI
output: > 100 µM

input: Query (molecule): Nc1ccc(C(=O)NN2C(=O)C(Cl)C2c2ccccc2)cc1 (stereo not given) ; field requested: TGI
output: > 100 µM

input: Query (molecule): c1ccc(P(=Nc2ccccc2N=P(c2ccccc2)(c2ccccc2)c2ccccc2)(c2ccccc2)c2ccccc2)cc1 ; field requested: TGI
output: 13 µM

input: Query (molecule): COc1cc(/C=C(/C#N)C(N)=O)ccc1O ; field requested: TGI
output: > 100 µM

* * *

# Tested on: OVCAR-8 ovarian
# EXPERIMENT: NCI tumour cell line growth inhibition, 48 h
READOUT_NAME: GI50

SMILES_STRING	SYSTEM_TESTED	RESULT
C[CH2][Pb]([CH2]C)([CH2]C)[O]C(=O)c1ccc2ccccc2n1	OVCAR-8 ovarian	> 10 µM
COc1ccc(C(=O)N2c3ccccc3Sc3ccccc32)c(OC)c1	OVCAR-8 ovarian	0.749 µM

In the following, a different compound is considered.
input: Query (compound): C#CCOc1cccc(Nc2ncnc3c(NC(=O)CCl)cccc23)c1 ; field requested: GI50
output: 31.6 µM

* * *

// TGI lookup, one value per entry
# Test system: HT29 colon
# EXPERIMENT: NCI tumour cell line growth inhibition, 48 h

COMPOUND	TGI
O=C(Cc1ccccc1)NN1C(=O)C(Cl)C1c1ccccc1O (configuration not stated)	> 100 µM
COC12c3ccccc3-c3ccccc3C1[C@H]1C(=O)OC(=O)[C@H]12 (some centres not stated)	> 10 µM
CN1COc2c(n(C)c(=O)[nH]c2=O)C1	> 100 µM
O=C([CH-]C(=O)c1ccccc1)c1ccccc1.O=C([CH-]C(=O)c1ccccc1)c1ccccc1.[OH-].[OH-].[Ti+4]	> 100 µM
O=c1onc2c3ccccc3ncn12	> 100 µM
CC(C)=C/C=C1/CS(=O)(=O)C=C1C	> 100 µM

input: Query (compound): CC1OC(OC2C(OC(=O)[C@@H]3CC(C)(C)C[C@H]4C5=CC[C@@H]6[C@@]7(C)C[C@H](O)[C@H](OC8OC(CO)C(O)C(O)C8O)[C@@](C)(CO)[C@@H]7[C@H](O)C[C@@]6(C)[C@]5(C)CC[C@@]34C)OCC(O)C2O)C(O)C(O)C1O (some centres not stated) ; field requested: TGI
output: > 7.5 µM

input: Query (compound): Cc1ccc(N=Nc2c(O)c(C(=O)Nc3ccccc3)cc3ccccc23)c([N+](=O)[O-])c1 ; field requested: TGI
output: > 100 µM

input: Query (compound): C#CCOCC12C=CC(O1)C1C(=O)OCC12 (configuration not stated) ; field requested: TGI
output: > 100 µM

input: Query (compound): CCC[C@H](C)C[C@H](C)C[C@H](C)/C=C(\C)[C@@H](O)[C@@H](C)C(=O)CC ; field requested: TGI
output: 37 µM

input: Query (compound): [N-]=[N+]=C1C(=O)C2CC3CC(C2)CC1C3 ; field requested: TGI
output: > 100 µM

* * *

// TGI lookup, one value per entry
# Test system: SK-OV-3 ovarian
# EXPERIMENT: NCI tumour cell line growth inhibition, 48 h

COMPOUND	TGI
Nc1nc(Cl)c(N)c(NCC2(CO)CC(CCCc3ccccc3)C2)n1 (centres undefined)	> 100 µM
COc1ccc(C(=O)N2c3ccccc3Sc3ccccc32)c(OC)c1	> 100 µM
Cc1cccc(NC(=O)c2sc3nc4c(cc3c2N)CN(Cc2ccccc2)CC4)c1C	> 50 µM

input: Query (compound): C[C@H]1C=C2[C@@H]3CC(C)(C(=O)O)CC[C@]3(C)CC[C@]2(C)[C@]2(C)CC[C@H]3C(C)(C)[C@@H](OC(=O)c4cccc5c(=O)c6ccccc6[nH]c45)CC[C@]3(C)[C@@H]12 (some centres undefined) ; field requested: TGI
output: > 100 µM

input: Query (compound): CC1OC(OC2C(OC(=O)[C@@H]3CC(C)(C)C[C@H]4C5=CC[C@@H]6[C@@]7(C)C[C@H](O)[C@H](OC8OC(CO)C(O)C(O)C8O)[C@@](C)(CO)[C@@H]7[C@H](O)C[C@@]6(C)[C@]5(C)CC[C@@]34C)OCC(O)C2O)C(O)C(O)C1O (some centres undefined) ; field requested: TGI
output: > 7.5 µM

input: Query (compound): O=C1NC(=S)N(c2ccccc2)C1=O ; field requested: TGI
output: > 100 µM

input: Query (compound): CC(C)(C)CN1CCn2c(nc3c(N)nccc32)S1 ; field requested: TGI
output: 81 µM

input: Query (compound): CC(C)C1=CC23CCC4C(C)(C(=O)O)CCCC4(C)C2CC1C1C(=O)N(c2ccc(C(=O)O)cc2)C(=O)C13 (centres undefined) ; field requested: TGI
output: > 100 µM

input: Query (compound): CC(C)(C)c1ccc(C(=O)Nc2sc3c(c2C(N)=O)CCC(=O)C3)cc1 ; field requested: TGI
output: 8.75 µM

input: Query (compound): CC1(C)N=C(N)N=C(N)N1c1ccc(CCCCc2ccc(S(=O)(=O)F)cc2)c(Cl)c1 ; field requested: TGI
output: 25.5 µM

input: Query (compound): COc1cccc(N2C(=O)C3c4[nH]c5ccc(C)cc5c4C4CCC(C(C)(C)C)CC4C3C2=O)c1 (centres undefined) ; field requested: TGI
output: > 10 µM

input: Query (compound): COC(=O)c1c(O)ccc2c1C1(Cc3ccccc3C1=O)C(O)O2 (centres undefined) ; field requested: TGI
output: 57.8 µM

* * *

# Tested on: COLO 205 colon
# EXPERIMENT: NCI tumour cell line growth inhibition, 48 h
READOUT_NAME: TGI (µM)
Answer with a number only, understood to be in µM.

Some entries whose results are on file:
MOLECULE	READOUT_UNITS	TGI
COC(=O)C1=C(OC(=O)c2ccccc2)C(C(=O)OC)[C@]2(O)[C@@H](C(=O)OC)[C@H]1C[C@@H](c1ccccc1)[C@@H]2C(=O)OC (some centres undefined)	µM	21.8
Cc1cc(NCCCCCCCNc2cc(C)nc3cc([N+](=O)[O-])ccc23)c2ccc([N+](=O)[O-])cc2n1	µM	27

In the following, a different molecule is considered.
input: Query (molecule): COc1cc2c(c(OC)c1OC)-c1ccc(SC)c(=O)cc1[C@@H](NC1OC(CO)C(O)C(O)C1O)CC2 (some centres undefined) ; field requested: TGI
output: 0.0412

* * *

# Test system: A549 NSCLC
# EXPERIMENT: NCI tumour cell line growth inhibition, 48 h
// TGI lookup, one value per entry

Some entries whose results are on file:
COMPOUND	TGI
Cn1c2ccccc2n2c(=O)c3c(c(C#N)c12)CCCC3	> 100 µM
CC(C)(C)OC(=O)NCCC1CN(C(=O)c2ccccc2)c2ccccc21 (centres undefined)	> 100 µM
CN(CCCNC(=O)c1nn(-c2ccc(Cl)cc2Cl)c2c1Cc1ccccc1-2)CCCNC(=O)c1nn(-c2ccc(Cl)cc2Cl)c2c1Cc1ccccc1-2	3.64 µM

In the following, a different compound is considered.
input: Query (compound): CN(CCCCCl)P(=O)(OCCS(=O)(=O)CC(NC(=O)CCC(N)C(=O)O)C(=O)NC(C(=O)O)c1ccccc1)OCC1OC(n2cc(F)c(=O)[nH]c2=O)CC1O (centres undefined) ; field requested: TGI
output: > 100 µM
